Consider the following molecules; for each one, report its pKd.
assay_target: Quadruplex DNA
assay_comment: Binding affinity to MYC G4-quadruplex DNA (unknown origin) assessed as dissociation constant
Assay type: nucleic-acid assay
The scale used: pKd is minus the common logarithm of the concentration in molar units.

For the molecule CN1CCN(c2ccc(-c3nc4cc(F)c(F)cc4nc3-c3ccc(N4CCN(C)CC4)cc3)cc2)CC1 , give its measured pKd value. 5.89

Please indicate pKd recorded for O=c1oc2c3c4c(cc2cc1-c1nc2ccccc2s1)CCCN4CCC3 5.70

Please supply the value of reported pKd for the item CN1CCN(c2ccc(-c3nc(-c4nc5ccccc5s4)[nH]c3-c3ccc(N4CCN(C)CC4)cc3)cc2)CC1 5.70

###

Tested on: Calf thymus DNA
assay_comment: Binding affinity to calf thymus DNA sequence
Assay type: nucleic-acid assay, Bos taurus
assay_readout: pKd
pKd (log units): -log10 of the concentration in mol/L.

Provide measured pKd value, entry: CN(C)c1ccc2nc3ccc(N(C)C)cc3[s+]c2c1 [METHYLENE BLUE ANHYDROUS] 6.70

Respond only with pKd recorded for CN(CCc1ccc(Br)cc1)c1ccc2nc3ccc(N(C)CCc4ccc(Br)cc4)cc3[s+]c2c1 4.96
